Source listed as patent US20260240851A1.

Experiment: LTI-291-002 multiple ascending dose study: plasma and CSF pharmacokinetics
Type: in vivo, human
Settings: human, plasma, oral, after the 1st dose, across dose levels; read-out: mean t1/2
measurementLabel: half-life

Using known records, supply half-life for CCCCCO[C@H]1CC[C@H](NC(=O)c2cnn3c(C)cc(C)nc23)CC1 [Compound A]
20.7 to 27.9 h

* * *

Experiment: LTI-291-001 single ascending dose study: plasma pharmacokinetics and food effect
Type: in vivo, human
Settings: human, plasma, po, 10 mg, 10 mg fed, single oral dose, geometric mean; read-out: Vz/F
measurementLabel: Vd/F (L)
Numbers only, in L.

Could you please provide reported Vd/F for CCCCCO[C@H]1CC[C@H](NC(=O)c2cnn3c(C)cc(C)nc23)CC1 ? Thanks!
39.6
